Measured IC50 values are reported for all entries that follow.
Tested on: Na+ channels
Assay: Whole-cell voltage clamp of Na+ currents in GH3 cells
Type: cell-based, rat
Conditions: holding potential −150 mV, GH3 cells; read-out: 50% inhibitory concentration (IC50), resting state
Respond with the bare value in µM.

[[record]]
compound = "CN(C)CCC=C1c2ccccc2CCc2ccccc21 [amitriptyline]"
number = 141


API: the following record is the query input.
Look up IC50: CCCCN1CCCCC1C(=O)Nc1c(C)cccc1C (centres unmarked) [bupivacaine] 9.5
